Test: Intrinsic cytotoxicity against human K562 cells assessed as cell survival […] by MTT assay
Type: cell-based
Conditions: read-out: Survival
readout: viability (%)
Answer with a number only, understood to be in %.

molecule	unit-annotation	viability
CC(=O)[C@H]1CC[C@H]2[C@H]3[C@H]([C@H](OC(=O)c4ccccc4)C[C@]12C)[C@@]1(C)CCC(=O)C[C@H]1C[C@H]3O[C@@H]1CCCCO1	%	61.5

Any idea what its viability is? The molecule is COCO[C@H]1C[C@H]2[C@@H]([C@H](O)C[C@@H]3CC(=O)CC[C@@]32C)[C@@H]2CC[C@H](C(C)CCC(=O)OC)[C@@]12C (stereo partly specified)
84.7

Same thing, different molecule: CC(=O)[C@H]1CC[C@H]2[C@@H]3CCC4=CC(=O)CC[C@]4(C)[C@H]3CC[C@]12C [PROGESTERONE]
81.6

Try this molecule next: CC(=O)[C@@]1(O[C@@H]2CCCCO2)CC[C@H]2[C@@H]3CC[C@@H]4CC(=O)CC[C@]4(C)[C@H]3[C@H](O[C@H]3CCCCO3)C[C@@]21C
67.9

Please do the same for COCCCC(C)[C@H]1CC[C@H]2[C@@H]3[C@H](O[C@@H]4CCCCO4)C[C@@H]4CC(=O)CC[C@]4(C)[C@H]3C[C@H](OC(=O)c3ccccc3)[C@]12C (stereo partly specified) as well.
51

Same thing, different molecule: CC(=O)[C@H]1CC[C@H]2[C@H]3[C@H]([C@H](O[C@@H]4CCCCO4)C[C@]12C)[C@@]1(C)CCC(=O)C[C@H]1C[C@H]3OC1CCCCO1 (mixture of isomers)
86.7

How about CC(=O)[C@H]1CC[C@H]2[C@H]3[C@H]([C@H](O[C@@H]4CCCCO4)C[C@]12C)[C@@]1(C)CCC(=O)C[C@H]1C[C@H]3OC(=O)c1ccccc1 ?
80.8

Now the same for COC(=O)CCC(C)[C@H]1CC[C@H]2[C@@H]3[C@H](OC4CCCCO4)C[C@@H]4CC(=O)CC[C@]4(C)[C@H]3C[C@H](OC3CCCCO3)[C@]12C (mixture of isomers)
63.2

Lookup COCO[C@@H]1C[C@@H]2CC(=O)CC[C@]2(C)[C@H]2C[C@H](O)[C@]3(C)[C@@H](C(C)CCC(=O)OC)CC[C@H]3[C@H]12 (stereo partly specified)
95.7

Please do the same for CC(=O)[C@H]1CC[C@H]2[C@H]3[C@H]([C@H](O[C@H]4CCCCO4)C[C@]12C)[C@@]1(C)CCC(=O)C[C@H]1C[C@H]3OC1CCCCO1 (mixture of isomers) as well.
84.4

Follow-up item: COC(=O)CCC(C)[C@H]1CC[C@H]2[C@@H]3[C@H](OC(=O)c4ccccc4)C[C@@H]4CC(=O)CC[C@]4(C)[C@H]3C[C@H](O[C@@H]3CCCCO3)[C@]12C (stereo partly specified)
56.4

Then what about the molecule COCCCC(C)[C@H]1CC[C@H]2[C@@H]3[C@H](O[C@H]4CCCCO4)C[C@@H]4CC(=O)CC[C@]4(C)[C@H]3C[C@H](OC(=O)c3ccccc3)[C@]12C (stereo partly specified) ?
56.3

// repeat for CC(=O)[C@H]1CC[C@H]2[C@H]3[C@H]([C@H](OC(=O)c4ccccc4)C[C@]12C)[C@@]1(C)CCC(=O)C[C@H]1C[C@H]3O and report
81.1

Now the molecule CC(=O)[C@H]1CC[C@H]2[C@H]3[C@H]([C@H](OC(=O)c4ccccc4)C[C@]12C)[C@@]1(C)CCC(=O)C[C@H]1C[C@H]3OC(=O)c1ccccc1
66.4

Next up: CC(=O)[C@H]1CC[C@H]2[C@H]3[C@H]([C@H](O[C@@H]4CCCCO4)C[C@]12C)[C@@]1(C)CCC(=O)C[C@@H]1C[C@H]3OC(=O)c1ccccc1
77.8

Another: COc1ccc(CCN(C)CCCC(C#N)(c2ccc(OC)c(OC)c2)C(C)C)cc1OC (stereo unspecified)
93.3

Now the same for COCO[C@@H]1C[C@@H]2CC(=O)CC[C@]2(C)[C@H]2C[C@H](OC(=O)c3ccccc3)[C@]3(C)[C@@H](C(C)CCC(=O)OC)CC[C@H]3[C@H]12 (stereo partly specified)
43.5

Please do the same for CC(=O)[C@H]1CC[C@H]2[C@H]3[C@H]([C@H](O)C[C@]12C)[C@@]1(C)CCC(=O)C[C@H]1C[C@H]3OC(=O)c1ccccc1 as well.
92.9

Also need COC(=O)CCC(C)[C@H]1CC[C@H]2[C@@H]3[C@H](O[C@@H]4CCCCO4)C[C@@H]4CC(=O)CC[C@]4(C)[C@H]3C[C@H](OC(=O)c3ccccc3)[C@]12C (stereo partly specified) , thanks.
51.3

Field entry: CC(=O)[C@H]1CC[C@H]2[C@H]3[C@H]([C@H](O[C@H]4CCCCO4)C[C@]12C)[C@@]1(C)CCC(=O)C[C@H]1C[C@H]3OC(=O)c1ccccc1
100

Another molecule to look at: COC(=O)CCC(C)[C@H]1CC[C@H]2[C@@H]3[C@H](OC(=O)c4ccccc4)C[C@@H]4CC(=O)CC[C@]4(C)[C@H]3C[C@H](O[C@H]3CCCCO3)[C@]12C (stereo partly specified)
53.5

---

Measured viability of individual entries
Assay: Intrinsic cytotoxicity against human K562 cells assessed as cell survival […] by MTT assay
Assay type: cell-based
Details: read-out: Survival
I only need the number, in %, no unit after it.

// solved cases for viability follow
compound	readout	val
COC(=O)CCC(C)[C@H]1CC[C@H]2[C@@H]3[C@H](O[C@H]4CCCCO4)C[C@@H]4CC(=O)CC[C@]4(C)[C@H]3C[C@H](OC(=O)c3ccccc3)[C@]12C (some centres undefined)	viability	44.6
COCCCC(C)[C@H]1CC[C@H]2[C@@H]3[C@H](OC(=O)c4ccccc4)C[C@@H]4CC(=O)CC[C@]4(C)[C@H]3C[C@H](OC(=O)c3ccccc3)[C@]12C (some centres undefined)	viability	50.7
CC(=O)[C@H]1CC[C@H]2[C@H]3[C@H]([C@H](OC(=O)c4ccccc4)C[C@]12C)[C@@]1(C)CCC(=O)C[C@@H]1C[C@H]3OC(=O)c1ccccc1	viability	71.1

Please look at the following compound next.
Query: viability; subject: COC(=O)CCC(C)[C@H]1CC[C@H]2[C@@H]3[C@H](OC4=CCOCC4)C[C@@H]4CC(=O)CC[C@]4(C)[C@H]3C[C@H](OC3=CCOCC3)[C@]12C (some centres undefined)
76.3

---

Assay: Intrinsic cytotoxicity against human K562 cells assessed as cell survival […] by MTT assay
Format: cell-based
Settings: read-out: Survival
readout: viability (%)
# unit: % | format: bare number

These solved cases illustrate the format of a correct answer.
compound	val
COCCCC(C)[C@H]1CC[C@H]2[C@@H]3[C@H](OC(=O)c4ccccc4)C[C@@H]4CC(=O)CC[C@]4(C)[C@H]3C[C@H](O[C@H]3CCCCO3)[C@]12C (stereo partly drawn)	75.8
COCO[C@H]1C[C@H]2[C@@H]([C@H](OC(=O)c3ccccc3)C[C@@H]3CC(=O)CC[C@@]32C)[C@@H]2CC[C@H](C(C)CCC(=O)OC)[C@@]12C (stereo partly drawn)	49.7

Please examine the following record next.
Consider the compound COCCCC(C)[C@H]1CC[C@H]2[C@@H]3[C@H](OC(=O)c4ccccc4)C[C@@H]4CC(=O)CC[C@]4(C)[C@H]3C[C@H](O[C@@H]3CCCCO3)[C@]12C (stereo partly drawn) and give its measured viability.
54.4
